Entry source: patent US10696708B2

# System: human PIV type 3
# EXPERIMENT: Parainfluenza Virus-3 (PIV-3) plaque assay
# Type: cell-based
# RUN_PARAMETERS: MA104, 72 h, read-out: EC50 against PIV-3
ENDPOINT: EC50

Query :: What measured EC50 goes with CC(C)OC(=O)[C@H](C)NP(=O)(OC[C@@]1(CN=[N+]=[N-])O[C@@H](n2ccc(=O)[nH]c2=O)[C@H](F)[C@@H]1O)Oc1ccccc1 (stereo partly shown) [Compound 18A] ?
Result :: < 20 µM

---

# TGT: RSV polymerase (Human respiratory syncytial virus A, UniProt P28887)
# Sequence (P28887 whole entry, looked up): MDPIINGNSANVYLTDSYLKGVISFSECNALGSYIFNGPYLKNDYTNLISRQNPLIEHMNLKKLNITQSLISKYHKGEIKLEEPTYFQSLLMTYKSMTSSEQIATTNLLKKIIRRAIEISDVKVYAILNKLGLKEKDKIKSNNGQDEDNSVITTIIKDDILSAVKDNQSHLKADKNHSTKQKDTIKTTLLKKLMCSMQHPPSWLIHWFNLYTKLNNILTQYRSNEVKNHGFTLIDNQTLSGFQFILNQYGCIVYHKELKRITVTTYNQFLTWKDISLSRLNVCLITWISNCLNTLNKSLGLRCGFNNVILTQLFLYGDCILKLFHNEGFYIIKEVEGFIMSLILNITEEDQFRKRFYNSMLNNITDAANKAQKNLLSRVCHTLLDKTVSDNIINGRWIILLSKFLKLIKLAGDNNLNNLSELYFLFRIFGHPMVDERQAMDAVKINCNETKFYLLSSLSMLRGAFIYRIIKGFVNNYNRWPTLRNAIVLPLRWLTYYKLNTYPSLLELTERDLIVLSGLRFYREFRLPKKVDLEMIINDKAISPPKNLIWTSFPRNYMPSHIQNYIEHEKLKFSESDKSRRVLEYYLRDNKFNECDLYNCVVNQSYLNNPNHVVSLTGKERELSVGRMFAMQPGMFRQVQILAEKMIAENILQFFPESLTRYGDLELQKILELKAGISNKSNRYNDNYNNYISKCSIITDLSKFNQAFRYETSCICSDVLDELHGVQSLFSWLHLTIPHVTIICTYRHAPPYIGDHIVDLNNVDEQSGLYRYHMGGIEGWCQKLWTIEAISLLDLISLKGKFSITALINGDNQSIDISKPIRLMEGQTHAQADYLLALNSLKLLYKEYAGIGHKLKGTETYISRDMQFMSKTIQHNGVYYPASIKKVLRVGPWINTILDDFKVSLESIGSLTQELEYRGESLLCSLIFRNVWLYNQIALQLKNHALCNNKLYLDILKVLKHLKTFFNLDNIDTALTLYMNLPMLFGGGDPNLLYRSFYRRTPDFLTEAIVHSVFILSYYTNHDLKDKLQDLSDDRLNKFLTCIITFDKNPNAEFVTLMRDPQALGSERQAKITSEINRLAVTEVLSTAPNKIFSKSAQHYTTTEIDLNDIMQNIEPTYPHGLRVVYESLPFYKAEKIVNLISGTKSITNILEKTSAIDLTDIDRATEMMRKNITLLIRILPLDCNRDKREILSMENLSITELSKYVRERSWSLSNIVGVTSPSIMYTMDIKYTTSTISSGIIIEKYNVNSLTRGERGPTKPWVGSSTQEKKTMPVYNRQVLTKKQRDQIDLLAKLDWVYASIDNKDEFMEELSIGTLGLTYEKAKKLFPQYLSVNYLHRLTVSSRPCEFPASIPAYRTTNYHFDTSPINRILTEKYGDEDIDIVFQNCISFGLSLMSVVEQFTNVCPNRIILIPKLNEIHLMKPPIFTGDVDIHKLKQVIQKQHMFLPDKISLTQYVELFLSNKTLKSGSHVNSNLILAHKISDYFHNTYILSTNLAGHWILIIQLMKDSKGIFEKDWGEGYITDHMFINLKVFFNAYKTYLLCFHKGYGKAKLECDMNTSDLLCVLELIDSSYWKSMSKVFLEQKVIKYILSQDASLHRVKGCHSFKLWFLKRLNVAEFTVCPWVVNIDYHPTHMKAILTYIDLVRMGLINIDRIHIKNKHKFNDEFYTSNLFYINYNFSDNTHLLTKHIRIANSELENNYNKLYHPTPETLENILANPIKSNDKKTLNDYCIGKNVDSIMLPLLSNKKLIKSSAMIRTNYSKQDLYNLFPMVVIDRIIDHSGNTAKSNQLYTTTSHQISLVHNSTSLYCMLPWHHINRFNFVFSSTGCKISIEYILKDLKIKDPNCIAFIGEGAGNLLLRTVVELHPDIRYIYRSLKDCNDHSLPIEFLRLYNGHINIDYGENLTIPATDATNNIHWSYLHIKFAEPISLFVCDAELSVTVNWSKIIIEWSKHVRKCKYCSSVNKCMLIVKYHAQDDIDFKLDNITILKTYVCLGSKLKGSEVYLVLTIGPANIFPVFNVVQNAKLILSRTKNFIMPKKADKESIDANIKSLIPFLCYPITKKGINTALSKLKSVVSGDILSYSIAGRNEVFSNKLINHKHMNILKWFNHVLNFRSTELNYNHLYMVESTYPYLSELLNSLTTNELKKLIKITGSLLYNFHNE
pIC50: −log10 of the molar value.
Entries annotated with measured pIC50

Guide cases for pIC50, answers given:
NC[C@]1(COP(=O)(O)OP(=O)(O)OP(=O)(O)O)O[C@@H](n2ccc(=O)[nH]c2=O)[C@H](F)[C@@H]1O [Compound 5A] | 4.30 to 6.00
[N-]=[N+]=NC[C@]1(COP(=O)(O)OP(=O)(O)OP(=O)(O)O)O[C@@H](n2cnc3c(N)ncnc32)[C@H](F)[C@@H]1O [Compound 11A] | > 6.00
[N-]=[N+]=NC[C@]1(COP(=O)(O)OP(=O)(O)OP(=O)(O)O)O[C@@H](n2ccc(N)nc2=O)[C@H](F)[C@@H]1O [Compound 4A] | > 6.00
NC[C@]1(COP(=O)(O)OP(=O)(O)OP(=O)(O)O)O[C@@H](n2cnc3c(N)ncnc32)[C@H](F)[C@@H]1O [Compound 12A] | > 6.00
[N-]=[N+]=NC[C@]1(COP(=O)(O)OP(=O)(O)OP(=O)(O)O)O[C@@H](n2ccc(=O)[nH]c2=O)[C@H](F)[C@@H]1O [Compound 3A] | > 6.00

As a next step, examine the compound that follows.
Query :: Quick check: pIC50 on RSV polymerase (Human respiratory syncytial virus A, UniProt P28887), item NC[C@]1(COP(=O)(O)OP(=O)(O)OP(=O)(O)O)O[C@@H](n2ccc(N)nc2=O)[C@H](F)[C@@H]1O [Compound 6A] ?
Result :: 4.30 to 6.00
